Here, each record is paired with measured Anti HA serum antigen value (average value ± S.D.) data.
System: influenza HA vaccine (B/Nagasaki/1/87 strain)
Type: in vivo, female CDF1 mice
Setup conditions: Experiment 2; 1 W; 8000-fold dilution
Number only, in O.D 415 nm; omit the unit.

Study these solved cases before continuing.
CCCCCCCCCCCCCCCCCCCCCCCC(=O)O[C@H](CCCCCCCCCCC)CC(=O)S[C@@H]1O[C@H](CO)[C@@H](O)[C@H](O[C@H](C)C(=O)N[C@@H](C)C(=O)N[C@H](CCC(=O)OC)C(N)=O)[C@H]1NC(C)=O	0
CCCCCCCCCCCCCCCCCC(=O)OC[C@H]1O[C@H](OC(=O)C[C@@H](CCCCCCCCCCC)OC(=O)CCCCCCCCCCCCC)[C@H](NC(C)=O)[C@@H](O[C@H](C)C(=O)N[C@@H](C)C(=O)N[C@H](CCC(=O)OC)C(N)=O)[C@@H]1O	0.004
CCCCCCCCCCCCCCCCCC(=O)OC[C@H]1O[C@@H](SC(=O)C[C@@H](CCCCCCCCCCC)OC(=O)CCCCCCCCCCCCCCCCC)[C@H](NC(C)=O)[C@@H](O[C@H](C)C(=O)N[C@@H](C)C(=O)N[C@H](CCC(=O)O)C(N)=O)[C@@H]1O	0.006
CCCCCCCCCCCCCCCCCC(=O)O[C@H](CCCCCCCCCCC)CC(=O)S[C@@H]1O[C@H](CO)[C@@H](O)[C@H](O[C@H](C)C(=O)N[C@@H](C)C(=O)N[C@H](CCC(=O)OC)C(N)=O)[C@H]1NC(C)=O	0.008
CCCCCCCCCCCCCCCCCCCCCCCC(=O)O[C@H](CCCCCCCCCCC)CC(=O)S[C@@H]1O[C@H](COC(=O)CCCCCCCCCCCCCCCCC)[C@@H](O)[C@H](O[C@H](C)C(=O)N[C@@H](C)C(=O)N[C@H](CCC(=O)OC)C(N)=O)[C@H]1NC(C)=O	0.008

## Input # return recorded Anti HA serum antigen value (average value ± S.D.) for entry CCCCCCCCCCCCCCCCCC(=O)O[C@H](CCCCCCCCCCC)CC(=O)O[C@H]1O[C@H](CO)[C@@H](O)[C@H](O[C@H](C)C(=O)N[C@@H](C)C(=O)N[C@H](CCC(=O)OC)C(N)=O)[C@H]1NC(C)=O
## Output 0

## Input # return recorded Anti HA serum antigen value (average value ± S.D.) for entry CCCCCCCCCCCCCC(=O)O[C@H](CCCCCCCCCCC)CC(=O)O[C@H]1O[C@H](CO)[C@@H](O)[C@H](O[C@H](C)C(=O)N[C@@H](C)C(=O)N[C@H](CCC(=O)OC)C(N)=O)[C@H]1NC(C)=O
## Output 0.009

## Input # return recorded Anti HA serum antigen value (average value ± S.D.) for entry CCCCCCCCCCCCCCCC(=O)O[C@H](CCCCCCCCCCC)CC(=O)S[C@@H]1O[C@H](CO)[C@@H](O)[C@H](O[C@H](C)C(=O)N[C@@H](C)C(=O)N[C@H](CCC(=O)OC)C(N)=O)[C@H]1NC(C)=O
## Output 0

## Input # return recorded Anti HA serum antigen value (average value ± S.D.) for entry CCCCCCCCCCCCCCCC(=O)O[C@H](CCCCCCCCCCC)CC(=O)O[C@H]1O[C@H](CO)[C@@H](O)[C@H](O[C@H](C)C(=O)N[C@@H](C)C(=O)N[C@H](CCC(=O)OC)C(N)=O)[C@H]1NC(C)=O
## Output 0.010

## Input # return recorded Anti HA serum antigen value (average value ± S.D.) for entry CCCCCCCCCCCCCCCCCC(=O)OC[C@H]1O[C@@H](SC(=O)C[C@@H](CCCCCCCCCCC)OC(=O)CCCCCCCCCCCCCCC)[C@H](NC(C)=O)[C@@H](O[C@H](C)C(=O)N[C@@H](C)C(=O)N[C@H](CCC(=O)OC)C(N)=O)[C@@H]1O
## Output 0.001
